Test system: CAKI-1 renal
Test: NCI tumour cell line growth inhibition, 48 h; in the data active = GI50 below about 0.43 µM; inactive = the rest
Your reply should match one of these outcome classes. 1 (yes) = active, 0 (no) = inactive

• CN(C)c1ccc2c(c1)OC(N)=C(C#N)C2c1ccc2c(c1)CCO2 (stereo unspecified) = 1 (yes)

What call does the record list for O=C(NN1C(=O)CSC12CCCC2)c1[nH]c2ccc(Br)cc2c1-c1ccccc1 ?
0 (no)

What call does the record list for O=c1nc2oc3ccc4ccccc4c3cc-2s1 ?
0 (no)

What call does the record list for CCOc1ccccc1N=Nc1c(C)[nH]n(-c2nc(-c3ccccc3)cs2)c1=O ?
0 (no)

What call does the record list for Nc1[nH]nc2nc(-c3cccs3)cc(C(F)(F)F)c12 ?
0 (no)

What call does the record list for COc1ccc(C(=O)c2cc3c(N)c(C(=O)Nc4cccc5ccccc45)sc3nc2C)cc1 ?
1 (yes)

====

Test system: COLO 205 colon
Assay: NCI tumour cell line growth inhibition, 48 h
Readout Label: TGI

Below, 2 molecules whose answers are already recorded.
• C=C1C(=O)OC2/C=C(/C)C(OC(C)=O)CC(O)/C(C)=C\C(OC(=O)/C(C)=C\C)C12 (stereo not drawn) = > 100 µM
• C/C=C(/COC(C)=O)C(=O)OC1C=C(C=O)C(C)(C)C=C1C (stereo not drawn) = > 100 µM

Report TGI for COc1ccccc1NC(=O)CC(=O)N1N=C(C)C(N=Nc2ccc(C(=O)O)cc2)C1=O (stereo not drawn)
> 100 µM

Report TGI for O=C(Nc1ccccc1)N(CCCCN(Cc1ccccc1)C(=O)Nc1ccccc1)Cc1ccccc1
> 100 µM

Report TGI for Cc1cc(Cl)ccc1NC(=O)CC/C(CC(=O)C(C)C)=N\NC(=O)C[n+]1ccccc1
> 100 µM

Report TGI for O=C(/C=C/c1ccc([N+](=O)[O-])cc1)c1ccc2c3c(cccc13)CC2
> 25.4 µM

Report TGI for N#Cc1ccccc1-c1nc2c3c(c(N)ccc3n1)C(=O)c1ccccc1-2
> 100 µM

Report TGI for COc1ccc(-c2c(C#N)c(S)n(NS(=O)(=O)c3ccc(C)cc3)c(=O)c2C#N)cc1
44.6 µM

====

Test system: ACHN renal
Assay: NCI tumour cell line growth inhibition, 48 h
Readout Label: TGI

Below, 5 molecules whose answers are already recorded.
* COc1ccc2c(c1)C(=O)c1c-2c(N(C)C)nc2ccccc12 | > 100 µM
* CC(=O)C1C(=O)C(=O)N(c2ccccc2C(C)C)C1=O (stereo unspecified) | > 100 µM
* CC(C)c1cccc2sc(NC(=O)C(=O)C(C#N)c3cccc4ccccc34)nc12 (stereo unspecified) | > 100 µM
* COc1cc(/C=C2/C[C@H]3[C@@H]4CC=C5C[C@@H](OC(C)=O)CC[C@]5(C)[C@H]4CC[C@]3(C)NC2=O)cc(OC)c1OC | 44.6 µM
* O=C1c2c(O)cccc2C(C2OC(CO)C(O)C(O)C2O)c2cc(CO)cc(O)c21 (stereo unspecified) | > 100 µM

# context switch: different molecule, same TGI
Report TGI for C/C=C(/C)C(=O)O[C@H](C[C@@H](C)[C@H]1CC(c2ccoc2)OC1=O)[C@@]1(C)C(=O)CCC2O[C@]21C (stereo partly specified)
> 100 µM

====

Tested on: M14 melanoma
Test: NCI tumour cell line growth inhibition, 48 h
Listing of recorded log10(TGI) by entry.
Give log10 of TGI, with TGI taken in µM.

- C1=C2/CC[C@H](Sc3ccccc3)[C@H]2C2(CCCCC/1)OCCO2: 1.97
- O=C(Nc1ccc(Cl)c(Cl)c1)O/N=C\c1c(Cl)ccc([N+](=O)[O-])c1Cl: 0.91
- CC(=O)c1c(C(F)(F)F)n([O-])c2cc(Cl)c(Cl)cc2[n+]1=O: 0.42
- C[C@]12CC[C@H]3[C@@H](CC[C@]4(O)C[C@@H](O)CC[C@]34/C=N/O)[C@@]1(O)CC[C@@H]2C1=COC(=O)C1: -0.18

Enter measured log10(TGI), system M14 melanoma, for the compound shown: CN1CC[C@@H](c2c(O)cc(O)c3c(=O)cc(-c4ccccc4Cl)oc23)[C@@H]1CO
0.10

Every entry's value here was drawn from PubChem BioAssay (NCI).
